The values you see were collected from the supplement of paper PMC10567573.

B1: RAD54B (parent)
chain: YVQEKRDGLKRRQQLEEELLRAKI

- Variants of: B1
- Assay Notes: protein stability index of a GFP-peptide fusion (GPS, HEK-293T) (PSI 1-6); higher = more stable;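 also: lentivirally expressed fusions sorted by FACS into six bins by GFP to DsRed ratio, PSI derived from sequencing read proportions per bin multiplied by bin number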
- Condition Label: c terminus: a fixed tail appended
Recorded protein stability index, one value per entry.
Give a plain numeric answer without units written out.

Use the examples below as a reference point.
* I24N | 2.18
* R11I | 2.86
* Q13M | 2.07
* E16I | 1.51
* D7E | 1.96
* A22M | 2.27
* R12I | 1.99
* R11K | 2.44

Lab note: Y1N gave protein stability index of 3.74

protein stability index reading for E18V : 1.94

The variant listed as R11L shows protein stability index equal to 2.23

R11N yielded protein stability index of 2.67

Measured protein stability index, Y1D : 4.4

Lab book: protein stability index of A22V noted as 2.45

protein stability index measured on K10H = 2.4

// sample E17S , its protein stability index was 2.15

// protein stability index value for V2F : 3.62

Quick note, protein stability index for L9E landed at 2.85

Sample R21W ; protein stability index observed: 1.93

Looking up R21N , I see its protein stability index listed as 1.8

// protein stability index value for L9V : 1.82

Measured protein stability index of E4D : 1.68
